biological target: UniProt Q9H2K2; test: Modified TNKS2 Assay 2 (auto-parsylation, [3H]-NAD+ SPA); assay type: biochemical; conditions: 6 nM TNKS2, 96 well
Sequence (Q9H2K2 whole entry): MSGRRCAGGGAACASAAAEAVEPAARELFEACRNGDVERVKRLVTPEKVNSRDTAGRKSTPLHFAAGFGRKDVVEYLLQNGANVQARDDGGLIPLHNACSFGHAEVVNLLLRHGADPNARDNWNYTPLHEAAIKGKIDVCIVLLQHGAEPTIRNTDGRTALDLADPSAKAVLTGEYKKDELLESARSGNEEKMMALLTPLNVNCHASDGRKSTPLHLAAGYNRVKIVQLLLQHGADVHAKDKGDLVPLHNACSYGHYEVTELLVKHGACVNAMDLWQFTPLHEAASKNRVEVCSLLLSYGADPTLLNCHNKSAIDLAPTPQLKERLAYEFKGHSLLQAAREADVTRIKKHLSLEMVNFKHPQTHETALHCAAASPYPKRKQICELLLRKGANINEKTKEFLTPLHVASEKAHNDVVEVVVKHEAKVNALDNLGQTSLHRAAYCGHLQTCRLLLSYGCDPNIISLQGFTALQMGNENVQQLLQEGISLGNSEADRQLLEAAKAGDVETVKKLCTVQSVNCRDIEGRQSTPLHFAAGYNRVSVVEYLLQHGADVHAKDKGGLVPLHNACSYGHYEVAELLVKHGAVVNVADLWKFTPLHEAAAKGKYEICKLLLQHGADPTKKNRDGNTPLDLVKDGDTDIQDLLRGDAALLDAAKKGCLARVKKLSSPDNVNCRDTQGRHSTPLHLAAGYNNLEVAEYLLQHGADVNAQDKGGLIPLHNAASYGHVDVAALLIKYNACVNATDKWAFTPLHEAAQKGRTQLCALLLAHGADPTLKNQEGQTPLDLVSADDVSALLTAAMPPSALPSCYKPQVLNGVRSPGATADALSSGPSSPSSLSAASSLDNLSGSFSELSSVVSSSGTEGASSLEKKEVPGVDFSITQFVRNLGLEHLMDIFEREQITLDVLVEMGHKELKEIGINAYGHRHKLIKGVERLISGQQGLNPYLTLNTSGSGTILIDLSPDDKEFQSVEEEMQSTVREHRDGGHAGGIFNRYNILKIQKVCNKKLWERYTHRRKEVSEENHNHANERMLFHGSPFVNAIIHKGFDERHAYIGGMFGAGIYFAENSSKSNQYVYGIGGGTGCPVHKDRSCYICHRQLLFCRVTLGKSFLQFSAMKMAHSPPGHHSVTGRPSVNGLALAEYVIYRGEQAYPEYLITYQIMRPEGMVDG
pIC50: −log10 of the molar value.
Param threshold (6) applies to pIC50; output Condition met when value >= threshold, Condition not met when value < threshold.

Tell me whether pIC50 is at least 6 here: CCNC(=O)c1nc[nH]c1C(=O)Nc1ccc(NC(=O)c2ccccc2S(C)(=O)=O)cc1
Condition not met

Tell me whether pIC50 is at least 6 here: O=C(Nc1ccc(NC(=O)c2nc[nH]c2C(=O)NCCCN2CCOCC2)cc1)c1ccc(F)cc1
Condition not met

Tell me whether pIC50 is at least 6 here: O=C(Nc1ccc(NC(=O)c2nc[nH]c2C(=O)NCCN2CCCCC2)cc1OC(F)(F)F)c1ccc(F)cc1Cl
Condition met

Tell me whether pIC50 is at least 6 here: O=C(Nc1ccc(NC(=O)c2nc[nH]c2C(=O)NCCN2CCC(F)(F)C2)cc1)c1ccc(F)cc1Cl
Condition met

Tell me whether pIC50 is at least 6 here: O=C(NCCN1CCCCC1)c1nc[nH]c1C(=O)Nc1ccc(NC(=O)c2c(F)cc(F)cc2Cl)cc1
Condition met

Tell me whether pIC50 is at least 6 here: CNC(=O)c1nc[nH]c1C(=O)Nc1ccc(NC(=O)c2ccc(Cl)cc2F)cc1
Condition met

This collection of values is drawn from patent US9884063B2.
